TARGET_DESC: Cytochrome P450 2C9 (Homo sapiens)
ASSAY_NAME: Cytochrome P450 family 2 subfamily C member 9 (CYP2C9) small molecule antagonists: luciferase biochemical (cell-free) qHTS assay (AID 1645842); further: nearly all actives have a fitted effect of over 55% in size
CONDITION_PARAMETERS: P450-Glo CYP2C9 enzyme assay, luciferin luminescence; series mostly up to 57.4 µM
Results filed as inconclusive are left out. Calls of active or inactive are those of the source. The call rests on the fitted dose curve; in most records, active means well fitted inhibition curve with a large enough effect in the repeat runs; inconclusive means weak or mixed curves; inactive means no such curve, though single readings can be large or run the other way.
Give one outcome, nothing more. List: true (1) = active, false (0) = inactive

[ask] Which outcome was entered for the molecule Cc1ccc(S(=O)(=O)N2CCC[C@H]2c2ccc(F)cc2)cc1 in this test?
[reply] false (0)

[ask] What classification did Cc1cc(-c2nc(-c3ccc(OC(F)(F)F)cc3)no2)nn1Cc1ccnc(N2CCN(C3CC3)CC2)c1 end up with in this test?
[reply] true (1)

[ask] // return assay outcome for Oc1cccc(-c2c3nc(c(-c4cccc(O)c4)c4ccc([nH]4)c(-c4cccc(O)c4)c4nc(c(-c5cccc(O)c5)c5ccc2[nH]5)CC4)C=C3)c1
[reply] true (1)

[ask] State the result this test recorded for O=C(Nc1nc2ccc([N+](=O)[O-])cc2s1)C1CCCCC1 .
[reply] true (1)

[ask] Hello, I am checking results. What call was entered for COc1ccc(NC(=O)c2ccc(-c3ccc(C(=N)N)cc3C)cc2)cc1N1CCN(C)CC1 ?
[reply] false (0)

[ask] Per the assay record, what outcome was assigned to N#Cc1cccc(C(=O)Nc2cc(-c3ccccc3)nn2-c2ccccc2)c1 ?
[reply] true (1)

[ask] Call for entry Cc1ccc(C(=O)Nc2ccc(CN3CCN(C)CC3)c(C(F)(F)F)c2)cc1C#Cc1cnc2[nH]ncc2c1 :
[reply] true (1)

[ask] What call does the record list for O=C(Nc1ccc(-c2ccnc(Nc3ccc(N4CCOCC4)cc3)n2)cc1)C1CCCN1 (centres undefined) ?
[reply] true (1)

[ask] What did this assay record as the result for COc1cc(NC(=O)c2cccc(-n3cc(NC(=O)Nc4cccc(C)c4)cn3)c2)cc(OC)c1OC ?
[reply] true (1)

* * *

TARGET_DESC: Phospholipid hydroperoxide glutathione peroxidase GPX4 (Homo sapiens) (UniProt P36969)
Sequence (P36969 whole entry, looked up): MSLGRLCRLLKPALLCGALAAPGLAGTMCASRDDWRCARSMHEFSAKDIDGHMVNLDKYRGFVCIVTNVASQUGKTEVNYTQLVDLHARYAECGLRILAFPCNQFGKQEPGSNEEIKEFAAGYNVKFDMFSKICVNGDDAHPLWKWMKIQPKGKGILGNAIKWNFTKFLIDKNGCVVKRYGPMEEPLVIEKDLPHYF
ASSAY_NAME: Primary qHTS Assay for Inhibitors of Recombinant Selenoprotein Glutathione Peroxidase 4 (GPX4) (AID 1845192); further: nearly all actives have a fitted effect of over 65% in size
CONDITION_PARAMETERS: recombinant GPX4, GR-coupled NADPH fluorescence, 15 min; series mostly up to 50 µM
Results filed as inconclusive are left out. Calls of active or inactive are those of the source. The call rests on the fitted dose curve; in most records, active means well fitted inhibition curve with a large enough effect; inconclusive means small, poorly fitted or top-dose-only effect; inactive means flat fitted curve, though single readings scatter.
ASSAY_METRIC: outcome

{"COMPOUND": "C=C(C(=O)O[C@H]1C/C(C)=C/CC/C(CO)=C/[C@H]2OC(=O)C(=C)[C@H]12)C(O)CO (stereo partly specified)", "outcome": "inactive"}
{"COMPOUND": "C[C@@]12C(=O)N(c3ccc(C(=O)Nc4cccc5cccnc45)cc3)C(=O)[C@@H]1[C@@H]1C=C[C@H]2C1", "outcome": "inactive"}
{"COMPOUND": "COC1CC(O[C@H]2CC[C@]3(C)C4CC[C@]5(C)C(C6=CC(=O)OC6)=CCC56OC46CC[C@@H]3C2)OC(C)C1O[C@@H]1O[C@H](CO[C@@H]2O[C@H](CO)[C@@H](O)[C@H](O)[C@H]2O)[C@@H](O)[C@H](O)[C@H]1O (stereo partly specified)", "outcome": "inactive"}
{"COMPOUND": "COc1ccc(NC(=O)c2ccc(-c3ccc(C(=N)N)cc3C)cc2)cc1N1CCN(C)CC1", "outcome": "inactive"}
{"COMPOUND": "O=C(Nc1cnc(Cl)nc1)c1ccc(F)c(F)c1", "outcome": "inactive"}
{"COMPOUND": "Cc1ccc(C)c(NS(=O)(=O)c2cc(C(=O)Nc3ccccc3-c3ccccc3)ccc2C)c1", "outcome": "inactive"}

Please look at the following compound next.
[ask] Identify measured outcome obtained with Phospholipid hydroperoxide glutathione peroxidase GPX4 (Homo sapiens) (UniProt P36969) for COc1ccc(N(C(=O)Nc2c(C)cccc2C)c2cc(Nc3ccc(N4CCN(C)CC4)cc3)ncn2)c(OC)c1 .
[reply] inactive
